System: U251MG
Experiment: GBM cell line viability IC50, U251
Format: cell-based
Settings: Homo sapiens, U-251; MGMT negative U251MG glioblastoma cell line; read-out: IC50
pIC50: −log10 of the molar value.
measurement name: pIC50

# compound, target desc, result
records = [
    ("Cn1nnc2c(C(N)=O)ncn2c1=O [temozolomide]", "U251MG", 4.70),
]

###

Assay: CNS pharmacokinetics by blood and brain-ventricle microdialysis, CE-UV
Type: in vivo, Sprague-Dawley Rats
Settings: Sprague-Dawley, CSF (brain lateral ventricle microdialysate); Brain (CSF); rat, 40 mg/kg iv; read-out: AUC (0-12) (converted)
measurement name: AUC(0-t) (µM·h)

# molecule, measurement name, result
measured = [
    ("Cn1c(CCCCCCC(=O)NO)nc2cc(N(CCCl)CCCl)ccc21 [EDO-S101]", "AUC(0-t)", 2.27),
]

These measurements were taken from patent US20230049350A1.
